subject.of.test: Dopamine D4.4 (Homo sapiens)
Sequence (P21917 1-419): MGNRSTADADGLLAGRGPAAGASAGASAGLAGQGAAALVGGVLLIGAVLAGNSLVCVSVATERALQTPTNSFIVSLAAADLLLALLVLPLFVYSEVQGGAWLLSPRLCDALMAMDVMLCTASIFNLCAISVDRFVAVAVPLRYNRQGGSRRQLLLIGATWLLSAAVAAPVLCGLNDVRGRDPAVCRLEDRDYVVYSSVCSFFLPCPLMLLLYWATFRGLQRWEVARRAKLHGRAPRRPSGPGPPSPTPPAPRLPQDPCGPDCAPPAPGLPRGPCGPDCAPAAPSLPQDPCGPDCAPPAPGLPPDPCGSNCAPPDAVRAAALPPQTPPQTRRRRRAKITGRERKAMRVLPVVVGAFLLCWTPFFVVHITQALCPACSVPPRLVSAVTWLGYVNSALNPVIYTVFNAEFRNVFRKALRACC
measurement.kind: Ki (µM)
Give bare numbers, in µM.

Query :: Return Ki measured with Dopamine D4.4 (Homo sapiens) given this molecule: COC(=O)[C@@H](c1ccc(-c2ccccc2)cc1)[C@H]1C=CCCN1 [Compound 2]
Result :: 18.5

----------
subject.of.test: Serotonin transporter (SERT) (Homo sapiens, UniProt P31645)
Sequence (P31645 whole entry): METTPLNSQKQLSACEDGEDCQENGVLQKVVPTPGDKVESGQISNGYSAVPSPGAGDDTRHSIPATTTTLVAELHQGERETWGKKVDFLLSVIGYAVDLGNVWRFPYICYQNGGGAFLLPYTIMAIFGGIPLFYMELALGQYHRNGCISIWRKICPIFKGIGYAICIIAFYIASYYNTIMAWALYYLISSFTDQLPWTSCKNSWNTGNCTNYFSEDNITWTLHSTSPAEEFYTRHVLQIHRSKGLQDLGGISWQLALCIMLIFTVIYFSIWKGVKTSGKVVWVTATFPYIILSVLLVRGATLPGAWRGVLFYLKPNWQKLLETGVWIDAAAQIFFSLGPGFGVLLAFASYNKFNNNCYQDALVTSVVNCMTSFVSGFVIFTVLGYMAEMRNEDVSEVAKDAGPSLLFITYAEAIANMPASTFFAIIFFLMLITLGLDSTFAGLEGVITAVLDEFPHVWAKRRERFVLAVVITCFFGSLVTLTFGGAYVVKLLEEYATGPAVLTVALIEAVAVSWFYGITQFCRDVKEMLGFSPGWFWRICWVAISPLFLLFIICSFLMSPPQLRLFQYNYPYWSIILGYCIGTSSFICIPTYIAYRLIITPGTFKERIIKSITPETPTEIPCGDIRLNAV
measurement.kind: pKi
Give bare numbers, as −log10 of the molar value.

Query :: I am curious: what pKi value has been reported for COC(=O)[C@@H](c1ccc(-c2ccccc2)cc1)[C@H]1C=CCCN1 [Compound 2] ?
Result :: 5.63

----------
subject.of.test: Dopamine D4.4 (Homo sapiens)
measurement.kind: pIC50
Numbers only, as −log10 of the molar value.

Query :: // lookup pIC50 | system=Dopamine D4.4 (Homo sapiens) | key= COC(=O)[C@@H](c1ccc(-c2ccccc2)cc1)[C@H]1C=CCCN1 [Compound 2]
Result :: 4.18

----------
subject.of.test: Norepinephrine transporter (NET) (Homo sapiens, UniProt P23975)
Sequence (P23975 whole entry): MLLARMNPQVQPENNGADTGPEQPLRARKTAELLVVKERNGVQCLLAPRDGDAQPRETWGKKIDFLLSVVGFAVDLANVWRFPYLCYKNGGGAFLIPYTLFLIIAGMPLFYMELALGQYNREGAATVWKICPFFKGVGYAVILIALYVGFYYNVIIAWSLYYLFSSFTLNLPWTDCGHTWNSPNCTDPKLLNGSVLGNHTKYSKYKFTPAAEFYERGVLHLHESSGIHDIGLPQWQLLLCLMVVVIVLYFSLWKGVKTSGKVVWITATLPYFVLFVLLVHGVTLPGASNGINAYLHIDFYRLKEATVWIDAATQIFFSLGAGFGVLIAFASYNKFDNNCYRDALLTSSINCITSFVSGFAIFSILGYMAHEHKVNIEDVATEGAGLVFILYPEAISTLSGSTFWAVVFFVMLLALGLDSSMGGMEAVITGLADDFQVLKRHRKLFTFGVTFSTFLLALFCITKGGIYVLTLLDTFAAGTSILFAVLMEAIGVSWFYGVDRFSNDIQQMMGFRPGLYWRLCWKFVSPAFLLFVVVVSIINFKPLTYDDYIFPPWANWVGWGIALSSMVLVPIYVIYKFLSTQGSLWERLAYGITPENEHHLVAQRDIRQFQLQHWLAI
measurement.kind: pKi
Numbers only, as −log10 of the molar value.

Query :: Look up pKi: COC(=O)[C@@H](c1ccc(-c2ccccc2)cc1)[C@H]1C=CCCN1 [Compound 2]
Result :: 5.00

----------
subject.of.test: Serotonin 5HT6 (Homo sapiens, UniProt P50406)
Sequence (P50406 whole entry): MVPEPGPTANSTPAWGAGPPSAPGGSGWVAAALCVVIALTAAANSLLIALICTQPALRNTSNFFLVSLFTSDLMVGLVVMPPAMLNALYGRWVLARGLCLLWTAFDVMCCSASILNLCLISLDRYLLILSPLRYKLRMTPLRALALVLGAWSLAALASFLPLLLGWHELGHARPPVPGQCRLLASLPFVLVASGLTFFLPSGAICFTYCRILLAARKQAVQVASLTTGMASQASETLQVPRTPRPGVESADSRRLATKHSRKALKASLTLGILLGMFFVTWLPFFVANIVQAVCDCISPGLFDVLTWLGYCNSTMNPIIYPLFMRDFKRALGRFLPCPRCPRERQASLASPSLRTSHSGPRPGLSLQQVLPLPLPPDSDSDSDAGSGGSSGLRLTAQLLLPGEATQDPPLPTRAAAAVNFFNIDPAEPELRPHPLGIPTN
measurement.kind: pIC50
Give bare numbers, as −log10 of the molar value.

Query :: For COC(=O)[C@@H](c1ccc(-c2ccccc2)cc1)[C@H]1C=CCCN1 , what is its reported pIC50?
Result :: 4.02

----------
subject.of.test: Serotonin 5HT7 (Homo sapiens, UniProt P34969)
Sequence (P34969 whole entry): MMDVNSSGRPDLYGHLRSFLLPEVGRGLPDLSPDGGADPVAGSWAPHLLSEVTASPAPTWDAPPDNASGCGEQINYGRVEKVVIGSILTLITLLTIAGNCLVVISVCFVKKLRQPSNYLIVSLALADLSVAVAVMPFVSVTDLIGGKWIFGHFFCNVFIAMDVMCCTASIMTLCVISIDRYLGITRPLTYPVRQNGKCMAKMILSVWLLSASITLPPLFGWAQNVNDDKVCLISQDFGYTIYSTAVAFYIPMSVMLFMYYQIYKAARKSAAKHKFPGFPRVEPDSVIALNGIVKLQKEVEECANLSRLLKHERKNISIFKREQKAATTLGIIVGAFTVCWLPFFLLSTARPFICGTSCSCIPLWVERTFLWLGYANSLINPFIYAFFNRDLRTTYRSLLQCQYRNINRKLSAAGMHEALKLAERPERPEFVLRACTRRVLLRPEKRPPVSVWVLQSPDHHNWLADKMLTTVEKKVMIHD
measurement.kind: pKi
Numbers only, as −log10 of the molar value.

Query :: Lab note: need pKi for COC(=O)[C@@H](c1ccc(-c2ccccc2)cc1)[C@H]1C=CCCN1 [Compound 2] on Serotonin 5HT7 (Homo sapiens, UniProt P34969), anyone have it?
Result :: 4.83

----------
subject.of.test: norepinephrine transporter (Rattus norvegicus)
Construct: tissue Pel-Freez, Rogers, AR; host or cells: rat forebrain membranes
Sequence (Q9WTR4 1-597): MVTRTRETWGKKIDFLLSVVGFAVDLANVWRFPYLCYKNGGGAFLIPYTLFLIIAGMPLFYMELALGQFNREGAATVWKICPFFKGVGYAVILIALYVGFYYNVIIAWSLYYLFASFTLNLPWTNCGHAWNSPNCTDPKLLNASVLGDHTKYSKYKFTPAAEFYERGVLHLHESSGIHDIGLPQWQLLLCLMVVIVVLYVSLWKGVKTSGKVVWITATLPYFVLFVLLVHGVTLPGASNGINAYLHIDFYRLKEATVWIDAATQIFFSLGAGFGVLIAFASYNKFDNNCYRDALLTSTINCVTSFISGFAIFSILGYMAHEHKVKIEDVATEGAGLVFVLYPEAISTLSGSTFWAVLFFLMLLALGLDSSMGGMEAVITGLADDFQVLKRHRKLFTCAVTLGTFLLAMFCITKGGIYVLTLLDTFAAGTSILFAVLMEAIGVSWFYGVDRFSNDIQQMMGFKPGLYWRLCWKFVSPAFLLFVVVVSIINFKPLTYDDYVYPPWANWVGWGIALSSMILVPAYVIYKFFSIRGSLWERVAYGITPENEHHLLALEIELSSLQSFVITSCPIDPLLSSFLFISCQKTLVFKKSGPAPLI
measurement.description: [3H]nisoxetine displacement at norepinephrine transport sites, rat forebrain membranes
Format: binding
setup.conditions: NE (Ki, nM), displacement of 0.7 nM [3H]nisoxetine
measurement.kind: Ki

For orientation, consider the following solved cases.
Query :: Need Ki of COC(=O)C(c1ccc(Cl)c(Cl)c1)C1C=CCCN1 [(2R,2′S)-4d] , thanks.
Result :: 109 nM

Query :: // Ki lookup, key: COC(=O)[C@@H](c1ccc(Cl)cc1)[C@H]1C=CCCN1
Result :: 391 nM

Query :: What value of Ki has been reported for the following molecule? COC(=O)[C@H](c1ccc(Cl)cc1)[C@@H]1C=CCCN1
Result :: 3310 nM

Query :: // returns reported Ki for input COC(=O)[C@H](c1ccc2ccccc2c1)[C@@H]1C=CCCN1
Result :: 323 nM

Query :: What value of measured Ki is listed for COC(=O)C(c1ccc2ccccc2c1)C1C=CCCN1 (racemic) [(±)-4f] ?
Result :: 1190 nM

Query :: What Ki value was documented for this molecule, COC(=O)[C@@H](c1ccc2ccccc2c1)[C@H]1C=CCCN1 ?
Result :: 800 nM

Query :: Need Ki of COC(=O)C(c1ccc(Cl)cc1)C1C=CCCN1 (racemic) [(±)-4c] , thanks.
Result :: 1910 nM

Proceed to the following item.
Query :: Param item = COC(=O)C(c1ccc(Cl)c(Cl)c1)C1C=CCCN1 [(2S,2′R)-4d] ; retrieve measured Ki.
Result :: 193 nM
